experimentalProtocol: Oral bioavailability in Wistar rat at 100 mg/kg by UPLC-MS/MS analysis
Format: ADME, organism-based
particulars: in vivo
quantityName: bioavailability

>  <smilesStructure>
COc1ccc2cc3[n+](cc2c1OC)CCc1cc2c(cc1-3)OCO2

>  <quantityName>
bioavailability

>  <result>
0.36%

$$$$

====

Test system: HL-60
experimentalProtocol: Cytotoxicity against human HL-60 cells assessed as cell growth inhibition incubated for 48 hrs by WST-1 assay
Type: functional, cell-based
particulars: HL-60, 48 h
pIC50: −log10 of the molar value.
quantityName: pIC50

>  <compound>
CO[C@@H]1C=C[C@@]23c4cc5c(cc4[C@H](O)N(C[C@@H]2O)[C@H]3C1)OCO5

>  <systemName>
HL-60

>  <number>
6.52

$$$$
>  <compound>
CO[C@@H]1C=C[C@@]23c4cc5c(cc4CN(C[C@@H]2O)[C@H]3C1)OCO5 [(+)-HAEMANTHAMINE]

>  <systemName>
HL-60

>  <number>
6.52

$$$$
>  <compound>
O[C@H]1[C@H]2c3cc4c(cc3CN3CCC(=C[C@@H]1O)[C@H]23)OCO4

>  <systemName>
HL-60

>  <number>
6.52

$$$$
